# maps each entry to its inhibition
assay_system: Serine/threonine-protein kinase D2 (Homo sapiens) (UniProt Q9BZL6);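 also: reported percent inhibition values are means, part of the GSK PKIS kinase panel screen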
Sequence (Q9BZL6 whole entry): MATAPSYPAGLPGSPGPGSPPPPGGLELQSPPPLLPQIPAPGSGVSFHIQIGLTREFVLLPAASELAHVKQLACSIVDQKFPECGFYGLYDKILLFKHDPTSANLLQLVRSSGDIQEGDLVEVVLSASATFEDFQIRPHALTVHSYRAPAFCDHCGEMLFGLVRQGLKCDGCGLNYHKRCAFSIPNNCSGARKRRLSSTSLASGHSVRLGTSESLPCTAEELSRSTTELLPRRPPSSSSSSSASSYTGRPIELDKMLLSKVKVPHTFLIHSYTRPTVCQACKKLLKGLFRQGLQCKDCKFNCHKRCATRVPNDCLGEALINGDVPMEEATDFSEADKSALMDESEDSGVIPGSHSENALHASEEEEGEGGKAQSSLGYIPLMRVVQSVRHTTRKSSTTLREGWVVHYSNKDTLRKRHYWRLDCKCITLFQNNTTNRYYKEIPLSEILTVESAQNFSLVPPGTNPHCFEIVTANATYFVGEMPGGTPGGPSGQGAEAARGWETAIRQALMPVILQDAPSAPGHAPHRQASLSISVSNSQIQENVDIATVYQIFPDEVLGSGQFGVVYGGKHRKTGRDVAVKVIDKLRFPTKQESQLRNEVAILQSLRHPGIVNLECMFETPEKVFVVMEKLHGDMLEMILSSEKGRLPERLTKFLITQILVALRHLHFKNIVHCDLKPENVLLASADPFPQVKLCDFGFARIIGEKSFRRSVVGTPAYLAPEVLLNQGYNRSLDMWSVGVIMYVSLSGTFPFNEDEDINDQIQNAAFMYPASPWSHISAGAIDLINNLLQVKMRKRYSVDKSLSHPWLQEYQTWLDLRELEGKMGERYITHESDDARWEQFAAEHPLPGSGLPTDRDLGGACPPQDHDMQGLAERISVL
setup_conditions: at 0.1 µM
quantity_name: inhibition (%)

structure_smiles_string	assay_system	uom	value_observed
COc1ccc2[nH]c3c4[nH]c5ccc(OC)cc5c4c4c(c3c2c1)C(=O)NC4=O	Serine/threonine-protein kinase D2 (Homo sapiens) (UniProt Q9BZL6)	%	8.15
Fc1ccc(-c2cc(-c3c[nH]nc3-c3ccccn3)ccn2)cc1	Serine/threonine-protein kinase D2 (Homo sapiens) (UniProt Q9BZL6)	%	6.43
CNC(=O)c1cncc(/C=C/c2ccccc2Cl)c1	Serine/threonine-protein kinase D2 (Homo sapiens) (UniProt Q9BZL6)	%	-1
COc1ccc(-c2oc3ncnc(N)c3c2-c2ccc(NC(=O)Nc3cc(C(F)(F)F)ccc3F)cc2)cc1	Serine/threonine-protein kinase D2 (Homo sapiens) (UniProt Q9BZL6)	%	3.37
Fc1ccc(-c2nn3ccccc3c2-c2ccncc2)cc1	Serine/threonine-protein kinase D2 (Homo sapiens) (UniProt Q9BZL6)	%	1.93
COC(=O)c1sc(-n2cnc3cc(OC)c(OC)cc32)cc1OCc1ccccc1C(F)(F)F	Serine/threonine-protein kinase D2 (Homo sapiens) (UniProt Q9BZL6)	%	4.89
CS(=O)(=O)CCNCc1ccc(-c2ccc3ncnc(Nc4ccc(OCc5ccccc5)c(C(F)(F)F)c4)c3c2)o1	Serine/threonine-protein kinase D2 (Homo sapiens) (UniProt Q9BZL6)	%	3.28
CCn1c(-c2nonc2N)nc2cnc(Oc3cccc(NC(=O)c4ccc(N(C)C)cc4)c3)cc21	Serine/threonine-protein kinase D2 (Homo sapiens) (UniProt Q9BZL6)	%	1.81
CCN1CCC(CC(=O)Nc2n[nH]c3nnc(-c4cccc(F)c4F)cc23)CC1	Serine/threonine-protein kinase D2 (Homo sapiens) (UniProt Q9BZL6)	%	2.45
Cc1ccc(O)cc1Nc1ccnc2cc(-c3ccccn3)ccc12	Serine/threonine-protein kinase D2 (Homo sapiens) (UniProt Q9BZL6)	%	6.27

----------
# maps each entry to its inhibition
assay_system: Fibroblast growth factor receptor 2 (Homo sapiens);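 also: reported figure is a mean percent inhibition of FGFR2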
setup_conditions: at 1 µM

structure_smiles_string	uom	inhibition
Cc1cccc2c1NC(=O)/C2=N\Nc1ccc(S(N)(=O)=O)cc1	%	3.25
COc1cccc(-c2c[nH]c3c(N/N=C/c4ccncc4)ncnc23)c1	%	9.49
NS(=O)(=O)c1ccc(N/N=C2\C(=O)Nc3ccc4ncccc4c32)cc1	%	69.8
COc1cc2ncn(-c3cc(OCc4ccccc4C(F)(F)F)c(C(=O)N(C)C)s3)c2cc1OC	%	20.8
CNC(=O)c1cc(-c2ccc(F)cc2)cc(-c2ccc(S(=O)(=O)N3CCCC3)cc2)c1N	%	5.71
COc1ccc(-c2oc3ncnc(N)c3c2-c2ccc(NC(=O)Nc3cc(C(F)(F)F)ccc3F)cc2)cc1	%	75.9
COc1cccc(-n2ncc3c(N/N=C/c4ccc(F)cc4)ncnc32)c1	%	8.02
O=C(Nc1n[nH]c2cc(-c3ccc(F)cc3)ccc12)C1CC1	%	3.08
CCn1c(-c2nonc2N)nc2ccccc21	%	4.22
NS(=O)(=O)c1ccc(Nc2ncc(-c3ccccc3)o2)cc1	%	16.1
CCn1c(-c2nonc2N)nc2c(C#CC(C)(C)O)ncc(OC3CCNCC3)c21	%	11.4
O=S(=O)(CCNCc1ccc(-c2ccc3ncnc(Nc4ccc(OCc5cccc(F)c5)c(Cl)c4)c3c2)o1)c1ccccc1	%	11.6
Cc1cccc(Nc2ncc(-c3ccccc3)o2)c1	%	6.52
COc1cc(Nc2nccc(Nc3ccc4c(C)n[nH]c4c3)n2)cc(OC)c1OC	%	39.8
CCCN1CCC(c2ccc(Nc3nc(Nc4cc(F)ccc4C(N)=O)c4cc[nH]c4n3)c(OC)c2)CC1	%	6.48
CCn1cc(-c2ccnc3[nH]ccc23)c(-c2cccc(NC(=O)Nc3ccc(OCc4ccccc4)cc3)c2)n1	%	0.34
c1cc(-c2cnn3nc(N4CCOCC4)ccc23)nc(NC2CC2)n1	%	11.4
[O-][S+]1CCN(Cc2ccc(-c3ccc4ncnc(Nc5ccc(OCc6cccc(F)c6)c(Cl)c5)c4c3)o2)CC1	%	9.73
Clc1ccc(-c2nn3ncccc3c2-c2ccnc(Nc3ccccc3)n2)cc1	%	10.3
CC(C)COC(=O)c1ccc2c(c1)/C(=C/Nc1ccc(S(N)(=O)=O)cc1)C(=O)N2	%	17.3
